- System: Mus musculus
- Protocol description: Assayed for antitumor activity against P388 leukemia in mice at a dose of 250 mg/kg/injection
- Assay type: functional
Value kind: T/C (%)
Numbers only, in %.

Observe how each entry below is paired with its result.
Molecule: COc1cc(C2c3cc4c(cc3N=C3COC(=O)N32)OCO4)cc(OC)c1OC (centres undefined)
Tested system: Mus musculus
T/C (%): 144
//
Molecule: COc1cc(OC)cc([C@@H]2c3cc4c(cc3N[C@H]3COC(=O)N23)OCO4)c1
Tested system: Mus musculus
T/C (%): 206

Reported T/C ( COc1cc([C@@H]2c3cc4c(cc3N(N)[C@@H]3COC(=O)N23)OCO4)cc(OC)c1OC ) = 161
